Known DC50 of a selection of compounds
biological target: KRAS G12V (Homo sapiens, UniProt P01116, G12V); construct: SW620-KRAS (G12V)-HiBit-KI cell (Pharmaron); host or cells: SW620-KRAS (G12V)-HiBit-KI cells (HiBiT knock-in at the endogenous KRAS locus); assay: KRAS G12V HiBit assay; format: cell-based; conditions: SW620-KRAS (G12V)-HiBit-KI cells, compound treatment for 24 hours, class symbols
Sequence (P01116 1-188 isoform P01116-2 G12V): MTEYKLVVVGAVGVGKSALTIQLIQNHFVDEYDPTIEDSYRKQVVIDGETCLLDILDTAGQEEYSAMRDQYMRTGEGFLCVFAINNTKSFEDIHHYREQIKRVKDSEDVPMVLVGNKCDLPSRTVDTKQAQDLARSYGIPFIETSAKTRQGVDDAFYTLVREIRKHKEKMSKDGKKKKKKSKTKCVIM
Quantity measured: DC50

INSERT INTO results (compound, quantity_measured, observed_measurement) VALUES
  ('CCc1c(F)ccc2cc(O)cc(-c3ncc4c(N5CCC[C@@](C)(O)C5)nc(OC[C@@]56CCCN5[C@H](COc5ccc(CN7CCC(c8ccc9c(c8)n(C)c(=O)n9C8CCC(=O)NC8=O)CC7)cc5)CC6)nc4c3F)c12 (some centres unmarked)', 'DC50', '10 to 100 nM'),
  ('C#Cc1c(F)ccc2cc(O)cc(-c3ncc4c(N5CCC[C@@](C)(O)C5)nc(OCC5(CN6CCC7(CC6)CN(c6ccc8c(c6)n(C)c(=O)n8C6CCC(=O)NC6=O)C7)CC5)nc4c3F)c12 (some centres unmarked)', 'DC50', '> 100 nM');
